Reference for the values: patent US20070060518A1

biological target: T1, HLA-A*0201 on T2 cells (human); assay: T2 cell binding assay, flow cytometry
T1 construct: whole, on cells; also called HLA-A2
experimental.readout: pEC50
One number for each entry, as −log10 of the molar value.

| binder | pEC50 |
| --- | --- |
| FVSEKIFYV [SSX2 41-49 (K41F, A42V)] | 5.33 |
| WMSEKIFYV [SSX2 41-49 (K41W, A42M)] | 5.29 |
| FISEKIFYV [SSX2 41-49 (K41F, A42I)] | 5.27 |
| YMSEKIFYV [SSX2 41-49 (K41Y, A42M)] | 4.60 |
| YLSEKIFYV [SSX2 41-49 (K41Y, A42L)] | 4.93 |

Hi team, please reply with pEC50 for each item in this list.
1. WVSEKIFYV [SSX2 41-49 (K41W, A42V)]
2. WLSEKIFYV [SSX2 41-49 (K41W, A42L)]

**A:**
1: 5.32; 2: 5.35
